- Tested on: PPARg DBDmut IVT, anti-PPARg (DBD mutation: PPARg1 K132A/R137A, NR concentration 270 nM)
- procedure summary: PBM binding z-score (relative to random genomic background probes); higher = stronger binding; sequences stand for … in GC…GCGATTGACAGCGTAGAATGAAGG
Respond with Satisfied for PBM binding z-score values of 0.8 and above, Not satisfied for values below.

[
  {
    "sequence string": "TCTCGGAGGACACGAAAGGTCAGAACTCGACATC",
    "assigned label": "Not satisfied"
  },
  {
    "sequence string": "ACTCGGAGGACAGAGGTCAGAGCTACGCCAGTGA",
    "assigned label": "Not satisfied"
  },
  {
    "sequence string": "CCTACTGGGCCAATGTCATTGATCAGTCAAAGCA",
    "assigned label": "Not satisfied"
  },
  {
    "sequence string": "TGAATGAGGTTAAAGGTCAGGGAACGTGGCGTCG",
    "assigned label": "Satisfied"
  },
  {
    "sequence string": "CAAACTAGGTCACCGGAAAGTCAAAGTCCGCATG",
    "assigned label": "Satisfied"
  },
  {
    "sequence string": "TTACCAAGGTGACCTGAGGTCGTTGATCCAACTC",
    "assigned label": "Not satisfied"
  },
  {
    "sequence string": "CGAACTAGGTCAAAGGATAGTGAAAGGCGACGTA",
    "assigned label": "Satisfied"
  },
  {
    "sequence string": "CGTCAAAGCTCAACTAAGGTAACGTAAAGCACGC",
    "assigned label": "Not satisfied"
  },
  {
    "sequence string": "CAATCTAGGTCACGAAAGGTCAAAGTCGAATGAC",
    "assigned label": "Satisfied"
  },
  {
    "sequence string": "CTAACTAGGTCAAGGTCAAAGTCGGTTTGTGCCA",
    "assigned label": "Satisfied"
  },
  {
    "sequence string": "CCTGCTAGGACAATGGTCAGCTAAAGCAGCTCGC",
    "assigned label": "Not satisfied"
  },
  {
    "sequence string": "TTACCAAAGTGAAAGGTCGTTGATGCACGCCTTG",
    "assigned label": "Not satisfied"
  },
  {
    "sequence string": "CCTACTGGGCCAAGGTCATTGACCAGTCAAAGCA",
    "assigned label": "Not satisfied"
  },
  {
    "sequence string": "ATACGTAGGTTACATCCGGGTCATTCAGGCTATG",
    "assigned label": "Not satisfied"
  },
  {
    "sequence string": "TCTCGGAGGACACGAAAAGTCAGAGCTCGACATC",
    "assigned label": "Not satisfied"
  },
  {
    "sequence string": "TAGCCTAGGTCATAGGGCCAGTATAGTACGCATC",
    "assigned label": "Not satisfied"
  },
  {
    "sequence string": "ATATGTAGGTTAGGGTCATTCACAAAGTAGGGAA",
    "assigned label": "Satisfied"
  },
  {
    "sequence string": "CCTAGCAGACCAATCTGGGTCACTCAAGGCTTGA",
    "assigned label": "Not satisfied"
  },
  {
    "sequence string": "ATCGAAAGGTCGACGAGTTGAGTATACACCGTTT",
    "assigned label": "Satisfied"
  },
  {
    "sequence string": "CCTACTGGGCCAAAGGACATTGATTCCAATGCTC",
    "assigned label": "Not satisfied"
  },
  {
    "sequence string": "ACTCGGAGGGCAAAGGTCAGAGCTACGCCAGTGA",
    "assigned label": "Not satisfied"
  },
  {
    "sequence string": "CGAACTATGTCAAAGGACAGTGAAAGGCGACGTA",
    "assigned label": "Not satisfied"
  },
  {
    "sequence string": "ATATGTAGGTTAGGGTCCTTCAGAAAGTAGGGAA",
    "assigned label": "Satisfied"
  },
  {
    "sequence string": "GCTGCTAGGTCGACTGATGGTCAGCTAAAGCTCG",
    "assigned label": "Not satisfied"
  },
  {
    "sequence string": "TCTCGGAGGACACGAAGGTCAAAGCTTTCCAGAG",
    "assigned label": "Not satisfied"
  },
  {
    "sequence string": "CGTCCGAGGTCAAAGGTCAGTGAAGAGATGACGG",
    "assigned label": "Satisfied"
  },
  {
    "sequence string": "GATCCAGGGTCAGCTAGAGGCCAGAGTATGGAAA",
    "assigned label": "Not satisfied"
  },
  {
    "sequence string": "CCTAGTTGGGCAGGAGGTCACACACCGGATATGA",
    "assigned label": "Not satisfied"
  },
  {
    "sequence string": "CCGACTGGGGCAAAGGTCACCATACTCAGTACGA",
    "assigned label": "Not satisfied"
  },
  {
    "sequence string": "CTCGAAAGGTCGTCCTCAGGTGAGTATACCAAAC",
    "assigned label": "Not satisfied"
  },
  {
    "sequence string": "GCTTACGGGTCAAAGGTTAAAGCATGAATAGAAT",
    "assigned label": "Satisfied"
  },
  {
    "sequence string": "CGAACTAAGTCAAAGGACAGTGAAAGGCGACGTA",
    "assigned label": "Not satisfied"
  },
  {
    "sequence string": "CGTCAAAGTTCAAGGTAATGTAACAGAAAGCAGC",
    "assigned label": "Not satisfied"
  },
  {
    "sequence string": "AGTCAAATTTCATCTAGGTAACGTAAGATATGCT",
    "assigned label": "Satisfied"
  }
]
